# tested.system: melanocortin-1 receptor (human, UniProt Q01726 1-317)
# Sequence (Q01726 whole entry): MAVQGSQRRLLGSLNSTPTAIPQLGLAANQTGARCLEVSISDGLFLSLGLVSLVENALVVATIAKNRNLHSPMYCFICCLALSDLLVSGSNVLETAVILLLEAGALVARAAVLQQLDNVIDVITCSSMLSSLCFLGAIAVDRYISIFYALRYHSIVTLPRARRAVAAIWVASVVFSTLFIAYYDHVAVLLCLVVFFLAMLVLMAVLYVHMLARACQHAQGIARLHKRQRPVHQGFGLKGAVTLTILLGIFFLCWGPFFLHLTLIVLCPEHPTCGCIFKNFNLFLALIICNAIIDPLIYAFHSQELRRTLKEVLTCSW
# experimental.protocol: cell-based or functional assay
Bridge positions count the residues as written; N and C are the ends. Square brackets hold non-standard residues; d marks the D form. dPhe(4-F) = N[C@H](Cc1ccc(F)cc1)C(=O)O; Pen = CC(C)(S)[C@H](N)C(=O)O; hCys = N[C@@H](CCS)C(=O)O

| binder | unit.info | cAMP Assay (EC-50) |
| --- | --- | --- |
| Ac-RC[dI]H[dF]RWC-NH2 (disulfide 2-8) [Ac-Arg-cyclo[Cys-D-Ile-His-D-Phe-Arg-Trp-Cys]-NH2] | nM | 0.69 |
| Ac-RC[dA]W[dF]RWC-NH2 (disulfide 2-8; SMILES CC(=O)N[C@@H](CCCNC(=N)N)C(=O)N[C@H]1CSSC[C@@H](C(N)=O)NC(=O)[C@H](Cc2c[nH]c3ccccc23)NC(=O)[C@H](CCCNC(=N)N)NC(=O)[C@@H](Cc2ccccc2)NC(=O)[C@H](Cc2c[nH]c3ccccc23)NC(=O)[C@@H](C)NC1=O) [Ac-Arg-cyclo[Cys-D-Ala-Trp-D-Phe-Arg-Trp-Cys]-NH2] | nM | 273 |
| Ac-R[hCys][dA][dF]RWC-NH2 (disulfide 2-7; SMILES CC(=O)N[C@@H](CCCNC(=N)N)C(=O)N[C@H]1CCSSC[C@@H](C(N)=O)NC(=O)[C@H](Cc2c[nH]c3ccccc23)NC(=O)[C@H](CCCNC(=N)N)NC(=O)[C@@H](Cc2ccccc2)NC(=O)[C@@H](C)NC1=O) [Ac-Arg-cyclo[hCys-D-Ala-D-Phe-Arg-Trp-Cys]-NH2] | nM | 888 |
| Ac-R[hCys][dA][dF]RW[Pen]-NH2 (disulfide 2-7; SMILES CC(=O)N[C@@H](CCCNC(=N)N)C(=O)N[C@H]1CCSSC(C)(C)[C@@H](C(N)=O)NC(=O)[C@H](Cc2c[nH]c3ccccc23)NC(=O)[C@H](CCCNC(=N)N)NC(=O)[C@@H](Cc2ccccc2)NC(=O)[C@@H](C)NC1=O) [Ac-Arg-cyclo[hCys-D-Ala-D-Phe-Arg-Trp-Pen]-NH2] | nM | 195 |
| Ac-R[hCys]A[dF]RWC-NH2 (disulfide 2-7; SMILES CC(=O)N[C@@H](CCCNC(=N)N)C(=O)N[C@H]1CCSSC[C@@H](C(N)=O)NC(=O)[C@H](Cc2c[nH]c3ccccc23)NC(=O)[C@H](CCCNC(=N)N)NC(=O)[C@@H](Cc2ccccc2)NC(=O)[C@H](C)NC1=O) [Ac-Arg-cyclo[hCys-Ala-D-Phe-Arg-Trp-Cys]-NH2] | nM | 4 |
| Ac-RC[dA]P[dPhe(4-F)]RWC-NH2 (disulfide 2-8; SMILES CC(=O)N[C@@H](CCCNC(=N)N)C(=O)N[C@H]1CSSC[C@@H](C(N)=O)NC(=O)[C@H](Cc2c[nH]c3ccccc23)NC(=O)[C@H](CCCNC(=N)N)NC(=O)[C@@H](Cc2ccc(F)cc2)NC(=O)[C@@H]2CCCN2C(=O)[C@@H](C)NC1=O) [Ac-Arg-cyclo[Cys-D-Ala-Pro-D-Phe(p-F)-Arg-Trp-Cys]-NH2] | nM | 169 |

Entry source: patent US20210040155A1
